The measured values listed here are drawn from the supplement of paper PMC9170038.

Tested on: MS2 coat protein
Assay: apparent KD of MS2 coat protein; designed switch direction (-1 OFF switch, 1 ON switch): 1; higher = weaker reporter binding
Conditions: input ligand: microRNA oligo, concentration not stated
Quantity Kind: apparent KD of MS2 coat protein (nM)
Could you give me the number in nM? Just the number is fine.

Sequence Code	apparent KD of MS2 coat protein (nM)
CGUCGUUUGAUAGGAUAUCGCUUUACAUGAGGAUCACCCGGGUUUACCACGCUGGUUUUUCUUUCCGAGAAGGAUUCUGAUGUU [salish99_SSNG02_r04_028] (Eterna round: R96, puzzle: Same State NG 2)	20.7

Need apparent KD of MS2 coat protein of CAGCUCGUGUGAGGAUAUGCCGCCGUUUCGGCUGCAGAAGGUGCUACGUUACAUGAGGAUCACCCAUGUCUCUGUUGUUUCGUC [salish99_SSNG1_r04_962] (Eterna round: R96, puzzle: Same State NG 1) , thanks.
19.1

###

Tested on: MS2 coat protein
Assay: apparent KD of MS2 coat protein; higher = weaker reporter binding
Details: Eterna round: R101; input ligand: FMN 200 uM
Quantity Kind: apparent KD of MS2 coat protein (µM)
Could you give me the number in µM? Just the number is fine.

Sequence Code	Quantity Kind	Unit Abbreviation	Value Reported
UAUUAUAUAUAGAAGGACAUGAGGAUCACCCAUGUCGCCGGGCCCGGGAAACCGGGCCCGGCCAUGUAGGAUAUAUAUAUAGUA [#This is a good prank 9] (puzzle (switch architecture): Inverted Exclusion NG 2)	apparent KD of MS2 coat protein	µM	0.00772

The record that follows has no apparent KD of MS2 coat protein shown yet.
Need apparent KD of MS2 coat protein of UCAGUAGAGUCAGGAUAUACAAAAGGCGGUCCAUACAUGAGGAUCACCCAUGUAGAAGGGACUCUACUGUAAGUCGGAAACGAC [#StaticStemDeletion - Eli x2 4.005] (puzzle (switch architecture): Small Loop Exclusion NG 1) , thanks.
0.0156

###

Tested on: MS2 coat protein
Test: apparent KD of MS2 coat protein; higher = weaker reporter binding
Details: Eterna round: R107; input ligand: theophylline 20 uM
Quantity Kind: apparent KD of MS2 coat protein
Include the unit after the number when you answer.

Recorded apparent KD of MS2 coat protein, per entry:
Sequence Code	Quantity Kind	Value Reported
GUCCAAAGGUCGGCCGCCACUGUAGGAUGUGUUCUUUCACAUGAGGAUCACCCAUGUUGUUAUUAUAGGACCGGGAUUGUAGGAC [39MS split4]	apparent KD of MS2 coat protein	32.2 nM
UCACGAGGCCUGGAUACCAGCGACAUGAGGAUCACCCAUGUAUGAGGAUCAGCCAUGUUAUGCCCUUGGCAGCCACGAAGGUCAU [XZZMULLIN]	apparent KD of MS2 coat protein	26.5 nM
AACGUGAACGUGGUAUACCCGUGUGCCGAAGGAGCGCCCGUAAGGGCAGGUAGGUCGCGGUCGACAUGAGGAUCACCCAUGUUUG	apparent KD of MS2 coat protein	84.2 nM
CGCCACUCGAGUGAUCCUCACGAGUGGCUACGAGGACCGGUACGGCCGCCACUCGAAUUAACAUGAGGAUCACCCAUGUAAUCUA [Brourdmod08]	apparent KD of MS2 coat protein	200 nM

Need apparent KD of MS2 coat protein of AUCAUGGCCAUCGAUACCAGCUACAUGAGGAUCACCCAUGUAAACGGCCCGGUGAGAUGUAGCCCUUGGCAGCGAAGGGUCAAGG [Ratimatiqu] , thanks.
23.1 nM

Need apparent KD of MS2 coat protein of GUGACUUACGGGCGCCAUUUGUGAUAGGAAGGAGCGGCGAAAUAGCCAGGUAGGUCGCCUAUACAUGAGGAUCACCCAUGUCACC [Veveatonus] , thanks.
64.9 nM

Need apparent KD of MS2 coat protein of GCAACGCUGUCGGCCGCCACUUUUACAUUGGCCGUGCUGUCUCUACAUGAGGAUCACCCAUGUGGAAGGACCGGGACAGCACACU [Arzaleer] , thanks.
39.6 nM

Need apparent KD of MS2 coat protein of UAUCCACAUGAGGAUCACCCAUGUUAGGAAGGAGCGGUGAAUGAACCAGGUAGGUCGCCUAGCUGAGGACUGUCGAUGGAUUCGU [Exclusion - Arginine A (Freestyle 17)] , thanks.
28.2 nM

Need apparent KD of MS2 coat protein of CUAUAAGUACCGGUCCUCAGAUCCUCAUGACGAGGACCGGUACGGCCGCCACUCGAAACAUGAGGAUCACCCAUGUAAUAACAUU [Brourdmod22] , thanks.
30.1 nM

###

Here the recorded apparent KD of MS2 coat protein is given for each entry.
Test system: MS2 coat protein
Assay: apparent KD of MS2 coat protein; designed switch direction (-1 OFF switch, 1 ON switch): -1; higher = weaker reporter binding
Conditions: Eterna round: R95; input ligand: microRNA oligo, concentration not stated

Sequence Code	Target Or System	Value Reported
GGUCGUAUGAGUAGUCCUCAUUGAAGAGAUUGGUAAGAUACAUGAGGAUCACCCAUGUUUGAACAAGCUUUUGCUCU [JR_Sv3TOV2_Sub008] (puzzle: Sensor v3, turn-off variant 2)	MS2 coat protein	41.9 nM
CUUGUACAUGAGGAUCACCCAUGUUAGGAUAUCUCGCCGUCGGCUUGCCGACGGUAUUAGAGAAGGGACUAGGG [JL Tixe mod 5] (puzzle: Exclusion 1)	MS2 coat protein	38.8 nM
UAUAAUACAUAGGAUAUCGAAUAAAUCAUUUAACGAGAAGGAUGAACAUGAGGAUCACCCAUGUGGUAUCAUGG [Mat - Exclusion 6 - JL Mod - D12] (puzzle: Exclusion 6)	MS2 coat protein	180 nM
CGGUACUGAGGAUAUACAUGAGGAUCACCCAUGUGUUCUAGCUAGCGUACUGGCAUUUGUAGAAGGCGGUGCUG [JL-ex3-3.23 Brourd mod] (puzzle: Exclusion 3)	MS2 coat protein	16.4 nM

The record that follows has no apparent KD of MS2 coat protein shown yet.
Need apparent KD of MS2 coat protein of AAGAAACAUGAGGAUCACCCAUGUGAGGAUAUGAGAAAGAAAAGAAAAGAAAGAAGAAUCAGAAGGCACAAAGG [salish99-ex1_r3_032] (puzzle: Exclusion 1) , thanks.
77.7 nM

###

Test system: MS2 coat protein
Assay: apparent KD of MS2 coat protein; designed switch direction (-1 OFF switch, 1 ON switch): 1; higher = weaker reporter binding
Conditions: input ligand: none
Here the recorded apparent KD of MS2 coat protein is given for each entry.
Could you give me the number in µM? Just the number is fine.

Recorded apparent KD of MS2 coat protein, per entry:
Sequence Code	apparent KD of MS2 coat protein / µM
ACCCGCGGGCCACAUGAGGAUCACCCAUGUGACCGGUGAUCCAAGGAUAUACGUGUCAUUGACGCGUAGAAGGUGGCCAAAACA [Ersooned] (Eterna round: R96, puzzle: Same State NG 3)	0.0288
AUUAAUAAUGCAGGAUAUGAUUAACAUGAGGAUCACCCAUGUGGUGUUGUGAGUAAGGAGAGUGAUCAGAAGGGCAUUUUUUUU [JMF's solution 27] (Eterna round: R96, puzzle: Same State NG 2)	0.385
UGAAUGGUGAUAGGAUAUACAUGAGGAAUCCUCGUAGAAGGAUCAUGACAUGAGGAUCACCCAUGUAGCGCUCCGUAGAGCGCA [JL SSNG1 1.21] (Eterna round: R96, puzzle: Same State NG 1)	0.154

Need apparent KD of MS2 coat protein of AUAACAAUGGCAGGAUAUGGGAUUGGAAGUGUUCCAGAAGGGCCAUAACGGCGAUGGACAUGAGGAUCACCCAUGUCUUAGCCU [MOD2 Powerstrip SSNG 1.4] (Eterna round: R96, puzzle: Same State NG 1) , thanks.
0.015

Need apparent KD of MS2 coat protein of UGAAUAGUUACAGGAUAUGAUCCGAAAAUUGGGUCAGAAGGGUGGGUGUUGUGCGCUAUGUGCUACAUGAGGAUCACCCAUGUU [SameState NG1 #36] (Eterna round: R96, puzzle: Same State NG 1) , thanks.
0.0412

###

Tested on: MS2 coat protein
Assay: apparent KD of MS2 coat protein; higher = weaker reporter binding
Conditions: Eterna round: R107; input ligand: tryptophan 2.4 mM
Here the recorded apparent KD of MS2 coat protein is given for each entry.
Could you give me the number in nM? Just the number is fine.

Recorded apparent KD of MS2 coat protein, per entry:
Sequence Code	Value Reported
GCCGGACUUUCGGCCGCCACUGAGAGAGUCGUGUGAACAUGAGGAUCACCCAUGUAAUAUAUAUACAGGACCGGGAGGGUCCGGC [4.T]	10.2
AUACCUAAUGUUACAUUUUCCUUUUCAGAUACCAGACUUUACGUUGUCCCUUGGCAGCUGUAUCACAUGAGGAUCACCCAUGUUG [JR_SSTheophyA_Sub009]	17

The record that follows has no apparent KD of MS2 coat protein shown yet.
Quick check: apparent KD of MS2 coat protein on MS2 coat protein, item AAACGUUGCUCAGAUACCAGACAUGAGGAUCACCCAUGUACCGAGGUACCCGAAAGGAAUGUCCCUUGGCAGCUGAGCAACGAAA [MAT - Exclusion Theophlline B - Mod of Eli - D23] ?
10.2
